Measured IC50 values are reported for all entries that follow.
biological target: extracellular domain (ECD) of the IL-5 receptor α chain (IL-5R α) (human) (UniProt Q01344); assay: grade under 'Affinity'; IC50 values of 500 nm or less; competition with [125I] IL-5 for IL-5Rα ECD (Example 3), assay not given

binder | IC50
DGFVCVEWARCPNCR [D G F V C V E W A R C P N C R (SEQ ID NO:9)] | < 500 nM
DGYVCVEWARCPTCK [D G Y V C V E W A R C P T C K (SEQ ID NO:7)] | < 500 nM
DGYVCVEWARCPMCT [D G Y V C V E W A R C P M C T (SEQ ID NO:8)] | < 500 nM

All values here come from patent US5683983.
